Entries and their Dmax
# Test System: AsPC-1 HiBiT-KRASG12D (Homo sapiens, UniProt P01116, G12D)
# Construct: insert the HiBiT tag onto the N-terminus of one or more of the endogenous KRAS alleles; endogenous in cells; host or cells: AsPC-1 (ATCC CRL-1682), CRISPR-Cas9 knock-in clone, one tagged allele
# Sequence (P01116 1-188 isoform P01116-2 G12D): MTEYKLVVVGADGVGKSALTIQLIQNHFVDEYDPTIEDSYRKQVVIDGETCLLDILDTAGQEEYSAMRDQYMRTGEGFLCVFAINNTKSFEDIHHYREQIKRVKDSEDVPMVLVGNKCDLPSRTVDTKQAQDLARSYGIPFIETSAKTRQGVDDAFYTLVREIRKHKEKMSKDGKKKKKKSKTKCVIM
# Measurement Protocol: HiBiT degradation assay (G12D), AsPC-1 HiBiT-KRASG12D cells
# Assay type: cell-based
# Condition Details: ASPC1, AsPC-1 HiBiT-KRASG12D cells, 24 hours treatment, maximum degradation observed

[[record]]
compound = "CCc1cccc2cc(O)cc(-c3ncc4c(N5CC6CCC(C5)N6)nc(OC[C@@]56CCCN5[C@H](COC(=O)N5CCN(c7cc([C@H](C(=O)N8C[C@H](O)C[C@H]8C(=O)N[C@@H](C)c8ccc(-c9scnc9C)cc8)C(C)C)on7)CC5)CC6)nc4c3F)c12 [Compound 5]"
reported_measurement = "80 to 100%"


Lab book: Dmax of CCc1cccc2cc(O)cc(-c3ncc4c(N5CC6CCC(C5)N6)nc(OC[C@]56CCCN5[C@H](COC(=O)N5CCN(c7cc([C@H](C(=O)N8C[C@H](O)C[C@H]8C(=O)N[C@@H](C)c8ccc(-c9scnc9C)cc8)C(C)C)on7)CC5)CC6)nc4c3F)c12 [Compound 105] noted as 80 to 100%

Reported Dmax for CCc1cccc2cc(O)cc(-c3ncc4c(N5CC6CCC(C5)N6)nc(OCCN5CCC(N(C)c6cc([C@H](C(=O)N7C[C@H](O)C[C@H]7C(=O)N[C@@H](C)c7ccc(-c8scnc8C)cc7)C(C)C)on6)CC5)nc4c3F)c12 (relative stereo) [Compound 135] was 80 to 100%

The value of Dmax measured for the compound CCc1cccc2cc(O)cc(-c3ncc4c(N5CC6CCC(C5)N6)nc(OCCN5CCC(C6CN(c7cc([C@H](C(=O)N8C[C@H](O)C[C@H]8C(=O)N[C@@H](C)c8ccc(-c9scnc9C)cc8)C(C)C)on7)C6)CC5)nc4c3F)c12 (single isomer, unassigned) [Compound 275] turned out to be 80 to 100%

Kindly note the recorded Dmax for Cc1ncsc1-c1ccc([C@H](C)NC(=O)[C@@H]2C[C@@H](O)CN2C(=O)[C@@H](c2cc(OCC3CCN(CCOc4nc(N5CC6CCC(C5)N6)c5cnc(-c6cc(O)cc7cccc(Cl)c67)c(F)c5n4)CC3)no2)C(C)C)cc1 [Compound 40] , which is 80 to 100%

Lab book: Dmax of CCc1cccc2cc(O)cc(-c3ncc4c(N5CC6CCC(C5)N6)nc(OC[C@@H]5CC[C@@H](COC(=O)N6CCN(c7cc([C@H](C(=O)N8C[C@H](O)C[C@H]8C(=O)N[C@@H](C)c8ccc(-c9scnc9C)cc8)C(C)C)on7)C[C@@H]6C)N5C)nc4c3F)c12 [Compound 261] noted as 80 to 100%

Measured Dmax of CCc1cccc2cc(O)cc(-c3ncc4c(N5CC6CCC(C5)N6)nc(OCCN5CCC(F)(CN6CCN(c7cc([C@@H](C(=O)N8C[C@H](O)C[C@H]8C(=O)N[C@@H](C)c8ccc(-c9scnc9C)cc8)C(C)C)on7)C[C@H]6C)CC5)nc4c3F)c12 [Compound 195] : < 20%

Value of Dmax reported for the compound CCc1cccc2cc(O)cc(-c3ncc4c(N5CC6CCC(C5)N6)nc(OC5CCN(CC6CCN(c7cc([C@H](C(=O)N8C[C@H](O)C[C@H]8C(=O)N[C@@H](C)c8ccc(-c9scnc9C)cc8)C(C)C)on7)CC6)CC5)nc4c3F)c12 [Compound 166] is 20 to 60%

Each recorded value in this set is attributed to patent US20250206732A1.
